assayed target: T1, Human EphA2 (human, UniProt P29317 24-976)
T1 construct: Endogenous EphA2 in fresh frozen human tumor tissue sections, not a recombinant protein; also called ephrin receptor A2; hEphA2
assay method text: IHC/IF on frozen human tumor tissue: NSCLC-Adeno
For each of the binders below, state its IHC score.

See these solved cases before continuing.
binder: AB-009813 (antibody, mouse IgG2a, V domains shown, Made on a mouse IgG2a framework) VH: QVQLQQWGAGLLKPSETLSLTCAVYGGSFSDYYWSWIRQPPGKGLEWIGEVNHAGSINYNNYNPSLKSRVTISVDPSKNQFSLKLTSVTAADTAVYYCAKPLRPHCTNGVCYSGDAFDIWGQGTMVTVAS VL: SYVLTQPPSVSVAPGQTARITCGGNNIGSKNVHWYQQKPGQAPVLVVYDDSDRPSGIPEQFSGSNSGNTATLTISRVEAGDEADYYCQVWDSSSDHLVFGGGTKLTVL
IHC score: 2
//
binder: AB-009816 (antibody, mouse IgG2a, V domains shown, Made on a mouse IgG2a framework) VH: QVQLQQWGAGLLKPSETLSLTCAVYGGSFSDYYWSWIRQPPGKGLEWIGEVNHRGSINYNNYNPSLKSRVTISVDASKNQFSLKLTSVTAADTAVYYCAKPLRPHCTNGVCYSGDAFDIWGQGTMVTVAS VL: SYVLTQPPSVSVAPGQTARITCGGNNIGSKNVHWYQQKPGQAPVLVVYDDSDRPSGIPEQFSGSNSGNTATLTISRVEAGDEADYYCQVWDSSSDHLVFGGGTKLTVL
IHC score: 2

We next turn to a different binder, shown below.
Exercise: Could you share which IHC score value was measured for AB-009815 (antibody, mouse IgG2a, V domains shown, Made on a mouse IgG2a framework) VH: QVQLQQWGAGLLKPSETLSLTCAVYGGSFSDYYWSWIRQPPGKGLEWIGEVNHRGSINYNNYNPSLKSRVTISVDTSKNQFSLKLTSVTAADTAVYYCAKPLRPHCTNGVCYSGDAFDIWGQGTMVTVAS VL: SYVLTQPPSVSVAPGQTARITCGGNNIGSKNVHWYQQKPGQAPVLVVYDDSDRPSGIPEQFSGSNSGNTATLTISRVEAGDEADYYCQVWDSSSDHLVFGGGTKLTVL ?
Key: 2
